# EXPERIMENT_SUMMARY: Cytotoxicity against human A549 cells assessed as toxicity after 72 hrs of incubation by MTT assay
# Format: cell-based
MEASURED_QUANTITY: CC50 at 72 h (µM)
Hi! Could you send only the number? It should be in µM, unit omitted.

Short answer for COc1ccc2c(c1)c(-c1ccccc1)c(NS(C)(=O)=O)n2S(=O)(=O)c1ccc(C)cc1 : CC50 at 72 h was 632

----------
# EXPERIMENT_SUMMARY: Cytotoxicity against dog MDCK cells after 72 hrs incubation by MTT assay
# Type: toxicity, cell-based, Canis lupus familiaris
Reported CC50 at 72 h by item:
Hi! Could you send only the number? It should be in µM, unit omitted.

The examples below pair each entry with its known result.
{"CHEMICAL_STRUCTURE": "Cc1ccc(-c2c(NS(C)(=O)=O)n(S(=O)(=O)c3ccc(C)cc3)c3ccccc23)cc1", "MEASURED_QUANTITY": "CC50 at 72 h", "REPORTED_RESULT": 14.1}
{"CHEMICAL_STRUCTURE": "Cc1ccc(S(=O)(=O)n2c(NS(C)(=O)=O)c(-c3ccccc3)c3ccccc32)cc1", "MEASURED_QUANTITY": "CC50 at 72 h", "REPORTED_RESULT": 59}
{"CHEMICAL_STRUCTURE": "Cc1ccc(S(=O)(=O)n2c(NS(C)(=O)=O)c(-c3ccc(Cl)cc3)c3ccccc32)cc1", "MEASURED_QUANTITY": "CC50 at 72 h", "REPORTED_RESULT": 14.8}

Short answer for Cc1ccc(S(=O)(=O)n2c(NS(C)(=O)=O)c(-c3cccc(F)c3)c3ccccc32)cc1 : CC50 at 72 h was 55

----------
# EXPERIMENT_SUMMARY: Selectivity index, ratio of CC50 for dog MDCK cells to EC50 for antiviral activity against Influenza A virus H1NI (A/Virginia/ATCC2/2009) infected in MDCK cells
# Assay type: toxicity, cell-based
# TEST_SETTINGS: read-out: Selectivity Index
Reported selectivity ratio by item:
Keep it simple and answer with nothing but the number.

{"CHEMICAL_STRUCTURE": "NC(=O)c1ncn([C@@H]2O[C@H](CO)[C@@H](O)[C@H]2O)n1", "REPORTED_RESULT": 62.6}

Short answer for COc1ccc2c(c1)c(-c1ccccc1)c(NS(C)(=O)=O)n2S(=O)(=O)c1ccc(C)cc1 : selectivity ratio was 51.9
